# ASSAY_EXPLANATION: Determination of the Acute Toxicity (acute seven-day toxicity)
# CONDITION: mouse, in vivo, ip, fasting white NMRI mouse, single i.p. dose
LD50 at 168 h strictly under 300 mg/kg means 1; at 300 mg/kg or over means -1.

| MOLECULE | CLASSIFICATION |
| --- | --- |
| CN(C)CCCN[C@@H]1COc2ccccc2[C@H](O)C1 (relative stereo) [E] | -1 |

# input Record CCN(CC)[C@@H]1COc2ccccc2[C@H](O)C1 (relative stereo) [F] : is its LD50 at 168 h strictly below 300 mg/kg?
# output 1

# input Record CNC1COc2ccccc2C(=O)C1 (racemic) [Compound 1] : is its LD50 at 168 h strictly below 300 mg/kg?
# output 1

# input Record CN[C@@H]1COc2ccccc2[C@H](O)C1 (relative stereo) [A] : is its LD50 at 168 h strictly below 300 mg/kg?
# output -1

# input Record CC(C)NC1COc2ccccc2C(=O)C1 (racemic) [Compound 2] : is its LD50 at 168 h strictly below 300 mg/kg?
# output 1

# input Record CN(C)CCCNC1COc2ccccc2C(=O)C1 (racemic) [Compound 4] : is its LD50 at 168 h strictly below 300 mg/kg?
# output 1

# input Record O[C@@H]1C[C@H](NCc2ccccc2)COc2ccccc21 (relative stereo) [D] : is its LD50 at 168 h strictly below 300 mg/kg?
# output 1

# input Record CN(C)C1COc2ccccc2C(=O)C1 (racemic) [Compound 5] : is its LD50 at 168 h strictly below 300 mg/kg?
# output 1

# input Record O=C1CC(NCc2ccccc2)COc2ccccc21 (racemic) [Compound 3] : is its LD50 at 168 h strictly below 300 mg/kg?
# output 1
